Origin of measurements: PubChem BioAssay AID485270

Reported values of inhibition for individual entries
# EXPERIMENTAL_TARGET: Orexin/Hypocretin receptor type 1 (Homo sapiens) (UniProt O43613)
# Sequence (O43613 whole entry, looked up): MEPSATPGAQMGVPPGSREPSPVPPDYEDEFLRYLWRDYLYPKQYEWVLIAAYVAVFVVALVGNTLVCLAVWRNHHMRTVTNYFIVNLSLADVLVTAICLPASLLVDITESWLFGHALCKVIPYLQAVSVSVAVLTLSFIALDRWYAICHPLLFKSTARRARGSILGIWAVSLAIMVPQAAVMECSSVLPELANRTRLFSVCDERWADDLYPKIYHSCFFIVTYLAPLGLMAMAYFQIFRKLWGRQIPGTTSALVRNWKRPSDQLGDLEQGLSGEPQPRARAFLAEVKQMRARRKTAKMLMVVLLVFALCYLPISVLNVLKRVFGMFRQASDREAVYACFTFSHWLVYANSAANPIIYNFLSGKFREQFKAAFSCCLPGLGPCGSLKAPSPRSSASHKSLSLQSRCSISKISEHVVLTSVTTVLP
# PROTOCOL: antagonists of human orexin 1 receptor (OX1R) (AID 485270);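 note: 0% = agonist challenge alone and 100% = reference antagonist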
# ASSAY_CONTEXT: OX1R-expressing cells, FRET antagonist read-out; at 6.6 µM; active compounds read high
About 5,800 (1.8%) of roughly 330,000 compounds were called active. For the sample, actives were picked, then their nearest neighbours and some compounds at random.
Supply the numeric figure in %, leaving out any unit text.

Below are worked cases with known answers.
COMPOUND	inhibition, %
COC(=O)c1ccc(NC(=O)c2ccccc2NS(=O)(=O)c2ccccc2)cc1	27
C#CCOCCOCCOCCNc1nc(N2CCN(C(=O)[C@H](CCCN=C(N)N)n3cc(C(N)[C@@H](C)CC)nn3)CC2)nc(N2CCN(C(=O)[C@H](CO)n3cc([C@@H](N)C(C)C)nn3)CC2)n1 (stereo not given in full)	1.49
O=C(CN1C(=O)NC(Cc2c[nH]c3ccccc23)C1=O)Nc1ccccc1C(F)(F)F (stereo not given)	3.6

-- ask I'd like to know its inhibition. The compound in question is O=C(NCCCN1CCOCC1)c1ccc(N2CCCC2)c([N+](=O)[O-])c1
-- reply 52.4

-- ask Moving on to COc1cc(NC(=O)c2ccccc2NS(=O)(=O)c2ccc(Cl)s2)cc(OC)c1
-- reply 72.7

-- ask Moving on to O=C1N[C@@H](c2ccccc2)COC(=O)[C@H](Cc2ccc(F)cc2)C/C=C\C[C@@H]1CC(=O)N(CCO)Cc1ccccc1
-- reply 13.5

-- ask Moving on to Nc1[nH][nH]c(=O)c1N=Nc1ccc2c(c1)OCO2
-- reply 84.8

-- ask Moving on to COc1ccc(C)cc1NC(=O)CSc1cccc[n+]1[O-]
-- reply -5.73
